protocol-notes: Calcium (Ca^2+) binding assay: fluorescence/absorbance titration of purified protein
run-parameters: absorbance at 569
measured-quantity: Aholo/Aapo

>>> value_measured("mApple A145E/E147D/K198D/R216E: mApple variant, SEQ ID NO: 27 (protein) EENNMAIIKEFMRFKVHMEGSVNGHEFEIEGEGEGRPYEAFQTAKLKVTKGGPLPFAWDILSPQFMYGSKVYIKHPADIPDYFKLSFPEGFRWERVMNFEDGGIIHVNQDSSLQDGVFIYKVKLRGTNFPSDGPVMQKKTMGWEESDERMYPEDGALKSEIKKRLKLKDGGHYAAEVKTTYKAKKPVQLPGAYIVDIDLDIVSHNEDYTIVEQYEEAEGRHSTGGMDELYK")
"1.66 (569)"

Cited source: patent US20240369485A1
